Assay: Antiglycation activity assessed as inhibition of glucose-mediated advanced glycation end product formation after 30 hrs by fluorescence spectrophotometry in presence of bovine serum albumin
Format: physicochemical
property_name: IC50 (µM)

P = O=C(O)c1ccc(N2C(=O)[C@H]3[C@@H](c4ccccc4Cl)N(c4ccccc4)O[C@H]3C2=O)cc1 (relative stereo)
Q = O=C(O)c1ccc(N2C(=O)[C@@H]3[C@@H](ON(c4ccccc4)[C@H]3c3ccccc3O)C2=O)cc1 (relative stereo)
Q) Identify the item whose IC50 is the smaller number: P or Q Identify your selection by its label.
A) P
(P: 33 µM, Q: 63.9 µM)

a = O=C1[C@@H]2[C@@H](ON(c3ccccc3)[C@H]2c2ccccc2Cl)C(=O)N1c1ccccc1 (relative stereo)
b = Cc1ccc(N2C(=O)[C@H]3[C@@H](c4ccccc4Cl)N(c4ccccc4)O[C@H]3C2=O)cc1 (relative stereo)
c = O=C1[C@@H]2[C@@H](ON(c3ccccc3)[C@H]2c2ccccc2O)C(=O)N1c1ccccc1 (relative stereo)
Q) Please put the entries in order of rising IC50. Rank them, then answer with their labels in that order.
A) b, a, c
(b: 7.18 µM, a: 30.9 µM, c: 64.8 µM)

P = COc1ccc(N2C(=O)[C@H]3[C@@H](c4ccccc4O)N(c4ccccc4)O[C@H]3C2=O)cc1 (relative stereo)
Q = COc1ccc(N2C(=O)[C@@H]3[C@@H](ON(c4ccccc4)[C@H]3c3ccccc3O)C2=O)cc1 (relative stereo)
Q) Problem: Given the entries P and Q , determine which has the lower reported IC50. Give the label of your selection.
A) P

P = COc1ccc(N2C(=O)[C@@H]3[C@@H](ON(c4ccccc4)[C@H]3c3ccccc3Cl)C2=O)cc1 (relative stereo)
Q = COc1ccc(N2C(=O)[C@H]3[C@@H](c4ccccc4Cl)N(c4ccccc4)O[C@H]3C2=O)cc1 (relative stereo)
Q) Consider entries P and Q . Which has the numerically lower IC50? Lab log: write the label of the selected item as the result.
A) Q
(Q: 8.63 µM, P: 24.2 µM)
